Field: Kd. Provide a value for each of the compounds that follow.
- assayTarget: CDK12/cyclin K + DDB1 (Homo sapiens, UniProt Q16531+Q9NYV4, DEL396-705)
- Construct: The kinase domain of human CDK12 (Uniprot: Q9NYV4; a.a; 715–1050); GST (N, cleaved yes); made in house; host or cells: Spodoptera frugiperda SF9 insect cells (Bac-to-Bac); CDK12/cyclin K co-infected with S. cerevisiae CAK1
- Sequence (Q16531 with tags, fused parts or gaps DEL396-705): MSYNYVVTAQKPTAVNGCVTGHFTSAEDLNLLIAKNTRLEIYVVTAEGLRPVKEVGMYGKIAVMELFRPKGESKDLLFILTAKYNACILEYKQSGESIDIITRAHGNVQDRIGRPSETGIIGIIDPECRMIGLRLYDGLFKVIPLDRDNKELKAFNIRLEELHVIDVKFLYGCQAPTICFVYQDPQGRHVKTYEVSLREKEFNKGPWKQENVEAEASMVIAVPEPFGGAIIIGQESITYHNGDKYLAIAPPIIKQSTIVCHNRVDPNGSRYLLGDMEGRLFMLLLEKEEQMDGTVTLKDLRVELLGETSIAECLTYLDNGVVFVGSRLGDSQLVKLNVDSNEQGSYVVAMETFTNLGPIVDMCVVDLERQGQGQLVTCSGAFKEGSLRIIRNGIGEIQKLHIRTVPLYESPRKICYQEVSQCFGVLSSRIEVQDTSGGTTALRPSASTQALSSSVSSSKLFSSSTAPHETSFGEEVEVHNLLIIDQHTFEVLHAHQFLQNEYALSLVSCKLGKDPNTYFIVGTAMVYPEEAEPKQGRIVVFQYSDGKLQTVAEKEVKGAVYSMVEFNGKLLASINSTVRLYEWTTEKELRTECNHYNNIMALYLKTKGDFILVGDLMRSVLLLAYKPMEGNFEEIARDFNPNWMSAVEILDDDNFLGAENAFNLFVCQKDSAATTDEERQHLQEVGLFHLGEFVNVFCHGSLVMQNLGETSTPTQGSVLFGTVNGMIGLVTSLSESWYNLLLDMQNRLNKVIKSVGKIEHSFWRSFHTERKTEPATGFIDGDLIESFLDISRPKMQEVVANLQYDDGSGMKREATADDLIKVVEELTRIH
- Sequence (Q9NYV4 715-1050, stated change not applied): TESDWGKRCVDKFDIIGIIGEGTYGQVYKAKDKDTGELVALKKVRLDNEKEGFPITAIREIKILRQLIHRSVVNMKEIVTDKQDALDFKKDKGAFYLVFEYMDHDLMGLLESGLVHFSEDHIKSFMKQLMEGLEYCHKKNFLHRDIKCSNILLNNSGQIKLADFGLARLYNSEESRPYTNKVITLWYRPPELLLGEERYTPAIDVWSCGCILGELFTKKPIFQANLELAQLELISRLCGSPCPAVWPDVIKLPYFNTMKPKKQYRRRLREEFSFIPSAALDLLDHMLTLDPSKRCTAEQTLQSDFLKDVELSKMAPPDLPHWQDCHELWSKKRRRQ
- Sequence (O75909 11-267 partner limits assumed): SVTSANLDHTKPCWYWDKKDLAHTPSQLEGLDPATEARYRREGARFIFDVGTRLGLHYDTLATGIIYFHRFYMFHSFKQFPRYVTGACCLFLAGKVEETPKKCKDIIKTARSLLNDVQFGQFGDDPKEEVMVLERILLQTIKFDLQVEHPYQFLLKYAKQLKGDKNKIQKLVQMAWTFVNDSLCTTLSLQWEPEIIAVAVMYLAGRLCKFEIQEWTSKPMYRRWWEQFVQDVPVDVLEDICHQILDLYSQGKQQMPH
- testProtocol: Microscale thermophoresis, ternary complex formation
- Format: binding
- experimentalContext: MST, labeled DDB1 + CDK12/cyclin K, run #1; read-out: Kd ternary complex formation, replicate #1
One number for each entry, in nM.

Please supply Kd for each of the following items, keeping them in order.
1. Clc1cccc2nc(CNc3cc(N4CCNCC4)nn4c(-c5ccsc5)cnc34)[nH]c12
2. Cn1cc(-c2cnn3c(NCc4nc5cc(Cl)c(Cl)cc5[nH]4)nc(N4CCOCC4)nc23)cn1
3. CN1CC=C(c2cn3c(-c4cnn(C(F)F)c4)cnc3c(NCc3nc4cc(Cl)c(Cl)cc4[nH]3)n2)CC1
4. CCc1cnn2c(NCc3nc4cc(Cl)c(Cl)cc4[nH]3)cc(N3CCCC[C@H]3CCO)nc12

24.3
409
137
8.7

---

Field: Kd. Provide a value for each of the compounds that follow.
- assayTarget: CDK12/cyclin K + DDB1 (Homo sapiens, UniProt Q16531+Q9NYV4, DEL396-705)
- Construct: The kinase domain of human CDK12 (Uniprot: Q9NYV4; a.a; 715–1050); GST (N, cleaved yes); made in house; host or cells: Spodoptera frugiperda SF9 insect cells (Bac-to-Bac); CDK12/cyclin K co-infected with S. cerevisiae CAK1
- testProtocol: Microscale thermophoresis, ternary complex formation
- Type: binding
- experimentalContext: MST, labeled DDB1 + CDK12/cyclin K, run #3; read-out: Kd ternary complex formation, replicate #3
Numbers only, in nM.

INSERT INTO measurements (smilesrecord, readoutvalue) VALUES
  ('Clc1cccc2nc(CNc3cc(N4CCNCC4)nn4c(-c5ccsc5)cnc34)[nH]c12', 37.6),
  ('CN1CC=C(c2cn3c(-c4cnn(C(F)F)c4)cnc3c(NCc3nc4cc(Cl)c(Cl)cc4[nH]3)n2)CC1', 152),
  ('Cn1cc(-c2cnn3c(NCc4nc5cc(Cl)c(Cl)cc5[nH]4)nc(N4CCOCC4)nc23)cn1', 528);

In the following, a different compound is considered.
For CCc1cnn2c(NCc3nc4cc(Cl)c(Cl)cc4[nH]3)cc(N3CCCC[C@H]3CCO)nc12 , write its Kd. 9.6

---

- Tested on: MDA-MB-231 cells
- testProtocol: CellTiter-Glo viability assay, WT MDA-MB-231
- Type: cell-based
- experimentalContext: Homo sapiens; WT MDA-MB-231, 72 hours, CellTiter-Glo; read-out: EC50 cell viability
measuredAttribute: pEC50
Numbers only, as −log10 of the molar value.

INSERT INTO measurements (compound, readoutvalue) VALUES
  ('CN(C)C/C=C/C(=O)Nc1ccc(C(=O)N2CCC[C@@H](Nc3ncc(Cl)c(-c4c[nH]c5ccccc45)n3)C2)cc1 [THZ531, reference compound]', 7.14);

In the following, a different compound is considered.
For Cn1cc(-n2cnc3c(NCc4nc5cc(Cl)c(Cl)cc5[nH]4)nc(N4CCOCC4)nc32)cn1 , write its pEC50. 7.26

---

- assayTarget: CDK12/cyclin K + DDB1 (Homo sapiens, UniProt Q16531+Q9NYV4, DEL396-705)
- Construct: The kinase domain of human CDK12 (Uniprot: Q9NYV4; a.a; 715–1050); GST (N, cleaved yes); made in house; host or cells: Spodoptera frugiperda SF9 insect cells (Bac-to-Bac); CDK12/cyclin K co-infected with S. cerevisiae CAK1
- testProtocol: Microscale thermophoresis, ternary complex formation
- Format: binding
- experimentalContext: MST, labeled DDB1 + CDK12/cyclin K, run #2; read-out: Kd ternary complex formation, replicate #2
Field: Kd. Provide a value for each of the molecules that follow.
Numbers only, in nM.

INSERT INTO measurements (smilesrecord, readoutvalue) VALUES
  ('Clc1cccc2nc(CNc3cc(N4CCNCC4)nn4c(-c5ccsc5)cnc34)[nH]c12', 31.3),
  ('CN1CC=C(c2cn3c(-c4cnn(C(F)F)c4)cnc3c(NCc3nc4cc(Cl)c(Cl)cc4[nH]3)n2)CC1', 122),
  ('CCc1cnn2c(NCc3nc4cc(Cl)c(Cl)cc4[nH]3)cc(N3CCCC[C@H]3CCO)nc12', 10.3);

For Cn1cc(-c2cnn3c(NCc4nc5cc(Cl)c(Cl)cc5[nH]4)nc(N4CCOCC4)nc23)cn1 , write its Kd. 347

---

- System: MDA-MB-231DDB1-shRNA cells
- testProtocol: CellTiter-Glo viability assay, MDA-MB-231 DDB1-shRNA
- Format: cell-based, human
- experimentalContext: Homo sapiens; MDA-MB-231 DDB1-shRNA; read-out: EC50 (DDB1 shRNA) cell viability
measuredAttribute: EC50 (nM)
Answers are plain numbers, in nM.

For Cn1cc(-n2cnc3c(NCc4nc5cc(Cl)c(Cl)cc5[nH]4)nc(N4CCNCC4)nc32)cn1 , write its EC50. 796

---

- assayTarget: CDK12/cyclin K + DDB1 (Homo sapiens, UniProt Q16531+Q9NYV4, DEL396-705)
- Construct: The kinase domain of human CDK12 (Uniprot: Q9NYV4; a.a; 715–1050); GST (N, cleaved yes); made in house; host or cells: Spodoptera frugiperda SF9 insect cells (Bac-to-Bac); CDK12/cyclin K co-infected with S. cerevisiae CAK1
- testProtocol: Microscale thermophoresis, ternary complex formation
- Format: binding
- experimentalContext: MST, labeled DDB1ΔBPB 10 nM + CDK12/cyclin K 1000 nM, mean of replicates; read-out: Kd ternary complex formation (average)
Field: pKd. Provide a value for each of the compounds that follow.
Answers are plain numbers, as −log10 of the molar value.

Consider the reported pKd for these compounds:
INSERT INTO results (compound, assaytarget, readoutvalue) VALUES
  ('Cn1cc(-c2cnn3c(NCc4nc5cc(Cl)c(Cl)cc5[nH]4)nc(N4CCOCC4)nc23)cn1 [MR-1014]', 'CDK12/cyclin K + DDB1 (Homo sapiens, UniProt Q16531+Q9NYV4, DEL396-705)', 6.37),
  ('CCc1cnn2c(NCc3nc4cc(Cl)c(Cl)cc4[nH]3)cc(N3CCCC[C@H]3CCO)nc12 [MR-1226]', 'CDK12/cyclin K + DDB1 (Homo sapiens, UniProt Q16531+Q9NYV4, DEL396-705)', 8.02),
  ('CN1CC=C(c2cn3c(-c4cnn(C(F)F)c4)cnc3c(NCc3nc4cc(Cl)c(Cl)cc4[nH]3)n2)CC1 [MR-1187]', 'CDK12/cyclin K + DDB1 (Homo sapiens, UniProt Q16531+Q9NYV4, DEL396-705)', 6.86);

In the following, a different compound is considered.
For Clc1cccc2nc(CNc3cc(N4CCNCC4)nn4c(-c5ccsc5)cnc34)[nH]c12 [MR-1110] , write its pKd. 7.51

Source of measurements: paper PMC11494886
